Here the recorded hCCL1 (100 nM) residual response in %, Protocol #3, mAb 5 µg/mL (33.3 nM) is given for each entry.
molecular target: human CCR8 (human, UniProt P51685 1-355); test: cell-based or functional assay

{"Binder": "humanized anti-CCR8 mAb 2-14 (antibody, human IgG1, kappa, V domains shown, Humanized, human IgG1 / kappa) VH: QVQLVQSGPEVVKPGASVKVSCKTSGYTFTEYTIHWVRQAPGQSLEWVGGINPNNGNTRYDQKFQGRVTITRDKSASTAYMELRSLTSEDTAVYYCARVARSSGSGPYAMDYWGQGTTVTVSS VL: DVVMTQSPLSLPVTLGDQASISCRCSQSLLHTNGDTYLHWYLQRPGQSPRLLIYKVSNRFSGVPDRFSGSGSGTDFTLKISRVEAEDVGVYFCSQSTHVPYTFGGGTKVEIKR", "Experimental Value": "42%"}

Input anti-CCR8 mAb 2-1 (antibody, V domains shown) VH: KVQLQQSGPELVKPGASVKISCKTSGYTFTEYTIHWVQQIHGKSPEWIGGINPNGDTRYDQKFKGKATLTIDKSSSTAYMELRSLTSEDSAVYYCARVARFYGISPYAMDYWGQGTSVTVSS VL: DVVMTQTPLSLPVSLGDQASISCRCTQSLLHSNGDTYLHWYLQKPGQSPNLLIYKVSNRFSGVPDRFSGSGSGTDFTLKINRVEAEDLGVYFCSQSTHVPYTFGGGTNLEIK . Output hCCL1 (100 nM) residual response in %, Protocol #3, mAb 5 µg/mL (33.3 nM): 73%
